Data origin, for the record: ChEMBL document CHEMBL2218924

Measurement Target: Serine/threonine-protein kinase 24 (Homo sapiens)
Condition Parameters: at 10 µM
For each of the molecules below, state its residual activity.
Just the number please, in %, no unit attached.

So for `CO[C@H]1C[C@@H]2CC[C@@H](C)[C@@](O)(O2)C(=O)C(=O)N2CCCC[C@H]2C(=O)O[C@H]([C@H](C)C[C@@H]2CC[C@@H](O)[C@H](OC)C2)CC(=O)[C@H](C)/C=C(\C)[C@@H](O)[C@@H](OC)C(=O)[C@H](C)C[C@H](C)/C=C/C=C/C=C/1C` , the logged residual activity turned out to be 76

Memo: `Oc1ccc(-c2nc(-c3ccc(F)cc3)c(-c3ccncc3)[nH]2)cc1` , reported residual activity: 77

Entry under test: `O=C(Nc1cccc(Nc2nccc(Nc3cccc(C(F)(F)F)c3)n2)c1)C1CC1` . Its residual activity was 65

Summary for this molecule, `O=C1Nc2cc(Br)ccc2/C1=C1/Nc2ccccc2/C1=N\O` : residual activity is 70

`COc1cc2ncnc(Nc3ccc(Oc4ccccc4)cc3)c2cc1OC` has a reported residual activity of 124

Reported residual activity ( `CC#CC(=O)Nc1cc2c(Nc3ccc(F)c(Cl)c3)ncnc2cn1` ) = 75

residual activity reported for this molecule `N#CC(C#N)=C(N)/C(C#N)=C/c1ccc(O)cc1` : 67

Lab note: measured residual activity of `CO[C@H]1[C@@H](OC)C[C@H](C)[C@@H](OC)C2=CC(=O)C=C(NC(=O)/C(C)=C/C=C/[C@H](OC)[C@@H](OC(N)=O)/C(C)=C/[C@@H]1C)C2=O` was 72

Briefly, residual activity measured for `CCN(CC)CCCCN1c2ccccc2Oc2ccc(Cl)cc21` : 99

// residual activity lookup, molecule = `CCN(CC)C(=O)c1ccc(Nc2nc(OCC3CCCCC3)c3nc[nH]c3n2)cc1` , result: 16

// `Oc1ccc(Nc2nc(-c3ccc(Cl)cc3)cs2)cc1` : residual activity value = 102

For `O=C(O)c1ccc2c3c1cccc3c(=O)n1c3ccccc3nc21` the molecule record lists residual activity as 67

response.value for `COc1ccc(C(=O)Nc2sc3c(c2C(N)=O)CCCC3)cc1OC` (field: residual activity) = 65

# residual activity of `Cn1nc2c3c(cccc31)C(=O)c1ccccc1-2` = 69

Quick note, residual activity for `Cn1cc(/C=C2\C(=O)Nc3ccc(S(N)(=O)=O)cc32)c2ccccc21` landed at 63

Measured residual activity, `C[C@@H](N)[C@H]1CC[C@H](C(=O)Nc2ccncc2)CC1` : 92

Value of measured residual activity for the entry `O=c1c2ccccc2[nH]c(=S)n1CCN1CCC(=C(c2ccc(F)cc2)c2ccc(F)cc2)CC1` : 69

// residual activity lookup, molecule = `CN(C)CCCn1cc(C2=C(c3c[nH]c4ccccc34)C(=O)NC2=O)c2ccccc21` , result: 7

Per the records, this molecule ( `COc1ccc(S(=O)(=O)N(CCO)c2ccccc2CN(C)C/C=C/c2ccc(Cl)cc2)cc1` ) has residual activity equal to 69

Sample `O=C1NC(=O)/C(=C\c2ccc3nccnc3c2)S1` ; residual activity observed: 55

In plain terms, `c1ccc(-c2n[nH]c3c2oc2ccccc23)cc1` has a documented residual activity of 67

For `CO[C@@H]1[C@H](N(C)C(=O)c2ccccc2)C[C@H]2O[C@]1(C)n1c3ccccc3c3c4c(c5c6ccccc6n2c5c31)C(=O)NC4` the molecule record lists residual activity as 7

# residual activity (molecule: `COc1cc2ncnc(Nc3ccc(O)c(Br)c3)c2cc1OC` ) is 43

Lab note: `O=[N+]([O-])c1ccc(-c2nc(-c3ccc(F)cc3)c(-c3ccncc3)[nH]2)cc1` gave residual activity of 82

Briefly, residual activity measured for `NC(=O)c1ccc2[nH]c(-c3ccc(Oc4ccc(Cl)cc4)cc3)nc2c1` : 82

Looking up `COc1cc2ncnc(N3CCN(C(=O)Nc4ccc(Oc5ccccc5)cc4)CC3)c2cc1OC` , I found its residual activity recorded as 117

Reported residual activity of `CN(C)c1ccc(/C=C2\C(=O)Nc3ccccc32)cc1` : 49

Reported residual activity for `Cc1cc(Nc2nc(-c3ccccc3)nc3ccccc23)n[nH]1` was 10

Briefly, residual activity measured for `Ic1cccc(CSc2nnc(-c3ccncc3)o2)c1` : 43

Measured residual activity of `CC[n+]1c(/C=C/N(C)c2ccccc2)n(-c2ccccc2)c2ccc(-c3nc4ccccc4s3)cc21` : 79

Just so you know, measured residual activity for `Cn1cnc2cc3c(Nc4cccc(Br)c4)ncnc3cc21` came out at 80

Reported residual activity for `c1ccc2c(-c3ccncc3)c[nH]c2c1` was 69

The molecule listed as `O=C(Nc1cccc(Nc2cc(Nc3cccc(C(F)(F)F)c3)ncn2)c1)C1CC1` has a reported residual activity of 42

Consider `O=C1NC(=O)c2cc(Nc3ccc(F)cc3)c(Nc3ccc(F)cc3)cc21` . Its measured residual activity is 54

Consider `CC(C)n1cnc2c(NCc3ccccc3)nc(NCCCO)nc21` . Its measured residual activity is 69

Quick note, residual activity for `COc1ccc(OC)c2c(=S)c3ccccc3[nH]c12` landed at 85

Summary for this molecule, `O=C1Nc2ccc(Br)cc2/C1=C\c1cc2c([nH]1)CCCC2` : residual activity is 77

GET /value?item= `Cc1cc2ncc(-c3ccccc3)nc2cc1C` &field=residual activity returns 83

Field residual activity (entry `O=C1c2ccccc2-[n+]2ccc3c([nH]c4ccccc43)c21` ) reads 70

// sample `Cc1ccc(S(=O)(=O)/C=C/C#N)cc1` , its residual activity was 88

// field: residual activity; key: `Cc1nc(-c2ccccc2)c(-c2ccncc2)o1` ; value = 100

Recorded residual activity (molecule `CC(=O)c1ccc(N2CCOCC2)cc1O` ): 71

Just so you know, measured residual activity for `COc1cc2ncc(-c3ccccc3)nc2cc1OC` came out at 71
